- assay_text: NCI Yeast Anticancer Drug Screen. Data for the mec2-1 strain (AID 157)
- measurement_setup: S. cerevisiae mec2-1 strain, at 50.0 µM (retest, dose inferred, filed as 5.0)
The panel holds about 79,000 compounds, 15% with a hit somewhere; the sample as a whole holds those more often. The source made the active and inactive calls. Cut-off read from the data, not from the text of the source: active = growth inhibition above about 70%; inactive = the rest.
Your reply should match one of these outcome classes. active, inactive

Example entries and their recorded answers appear below.
compound	discrete_label
CCOC1Oc2ccccc2-c2nc(SC)ncc21 (centres undefined)	inactive
O=C(NNC(=O)c1cccc(C(=O)NNC(=O)c2ccc(Cl)c(Cl)c2)n1)c1ccc(Cl)c(Cl)c1	inactive
Cc1ccc(NC(=O)CSC(N)=O)cc1	active
CCOC(=O)CC(NC(=O)c1[nH]cnc1/N=N/N(C)C)C(=O)OCC (centres undefined)	active
Cc1c(C)c2cc3c(=O)ccoc3c(C)c2oc1=O	inactive
NC1=CC(=O)c2ccccc2C1=O	inactive

[ask] Dear all, I need the recorded test outcome for Cc1ccc2c(c1)C(=O)N(CC[P+](c1ccccc1)(c1ccccc1)c1ccccc1)C2=O , thank you.
[reply] active

[ask] Dear all, I need the recorded test outcome for CCN(CC)CCOC(=O)C1C(c2ccccc2)C1(c1ccccc1)c1ccccc1 (centres undefined) , thank you.
[reply] inactive

[ask] Dear all, I need the recorded test outcome for C=CCC(O)C(=O)OC1CC(C)CCC1C(C)(C)c1ccccc1 (centres undefined) , thank you.
[reply] active

[ask] Dear all, I need the recorded test outcome for Cc1c2cc(Cl)ccc2cc2c1ccc1ccccc12 , thank you.
[reply] inactive

[ask] Dear all, I need the recorded test outcome for CN(C)c1nc(=NCc2ccccc2)ss1 , thank you.
[reply] inactive

[ask] Dear all, I need the recorded test outcome for O=c1c(NO)c([N+](=O)[O-])cnn1-c1ccccc1 , thank you.
[reply] inactive

[ask] Dear all, I need the recorded test outcome for Oc1c(Cl)cc(Br)cc1Cl , thank you.
[reply] active

[ask] Dear all, I need the recorded test outcome for CN(C)c1nc(=Nc2ccc(N=c3nc(N(C)C)ss3)cc2)ss1 , thank you.
[reply] active

[ask] Dear all, I need the recorded test outcome for COC(=O)C([NH-])c1ccccc1.COC(=O)C([NH-])c1ccccc1.[Cl][Pt+2][Cl] (centres undefined) , thank you.
[reply] inactive

###

- assay_text: NCI Yeast Anticancer Drug Screen. Data for the bub3 strain (AID 167)
- measurement_setup: S. cerevisiae bub3 mutant strain, at 5.0 µM (retest, dose inferred, filed as 0.5)
The panel holds about 79,000 compounds, 15% with a hit somewhere; the sample as a whole holds those more often. The source made the active and inactive calls. Cut-off read from the data, not from the text of the source: active = growth inhibition above about 70%; inactive = the rest.
Your reply should match one of these outcome classes. active, inactive

Example entries and their recorded answers appear below.
                                   molecule  discrete_label
0  COc1ccc(CC2C(=O)NC(C)C(=O)N(C)C3Cc4ccc(cc4)Oc4cc(ccc4O)CC(C(=O)NC(C)C(=O)NC(C)C(=O)N2C)N(C)C3=O)cc1 (stereo not given)        inactive
1  O=[N+]([O-])c1cccc(S(=O)(=O)N/N=C/c2cc(I)cc([N+](=O)[O-])c2O)c1        inactive
2    CCCCCCCN=C(N)c1ccc(C(=O)OCc2ccccc2)cc1        inactive
3  COc1ccc2c(c1)C(=O)C(Br)CC2 (stereo not given)        inactive
4  CC1C=C(COC(=O)Nc2ccccc2)ON1c1ccccc1 (stereo not given)        inactive

[ask] Dear all, I need the recorded test outcome for C=C(C)C(=O)OC1CC2=CC(CC3(C)OC3C3OC(=O)C(=C)C13)OC2=O (stereo not given) , thank you.
[reply] inactive

[ask] Dear all, I need the recorded test outcome for COc1ccc2c(c1)[n+]([O-])c(-c1ccccc1)c(N)[n+]2[O-] , thank you.
[reply] active

[ask] Dear all, I need the recorded test outcome for Cc1c(Cl)nc(-c2ccccc2)nc1C(=O)CCl , thank you.
[reply] inactive

[ask] Dear all, I need the recorded test outcome for Cc1ccnc2c1ccc1c(C)ccnc12 , thank you.
[reply] inactive

[ask] Dear all, I need the recorded test outcome for O=C(/C=C\c1cc(Br)ccc1O)/C=C/c1cc(Br)ccc1O , thank you.
[reply] active
